biological target: U2AF65 1,2L R227A (human, UniProt P26368 141-342, R227A); experiment: fluorescence anisotropy; Anisotropy: 100 mM NaCl, 15 mM HEPES pH 6.8, 0.2 mM TCEP, 0.1 U/ul Superase-In, 30 nM RNA, 23 C; smFRET: 50 mM HEPES pH 7.4, 100 mM NaCl, room temperature
Sequence (P26368 141-342 R227A, one chain of several): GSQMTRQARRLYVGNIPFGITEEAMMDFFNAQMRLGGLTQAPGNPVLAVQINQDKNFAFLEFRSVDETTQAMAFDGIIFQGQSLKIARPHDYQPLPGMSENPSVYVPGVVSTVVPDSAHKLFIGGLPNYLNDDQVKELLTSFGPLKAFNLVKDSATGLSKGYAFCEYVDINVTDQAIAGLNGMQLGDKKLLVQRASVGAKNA
MEASUREMENT KIND: pKd
Worth noting: pKd values are minus log10 of concentrations stated in mol/L.

Give the measured pKd of CCCUUUUUUUUCC (ssRNA) [AdML Py tract 13mer] .
6.78
